- SYSTEM_NAME: hPD-L1 (antigen of the Biacore assay) (human, UniProt Q9NZQ7 19-238, limits assumed)
- Sequence (Q9NZQ7 19-238 limits assumed): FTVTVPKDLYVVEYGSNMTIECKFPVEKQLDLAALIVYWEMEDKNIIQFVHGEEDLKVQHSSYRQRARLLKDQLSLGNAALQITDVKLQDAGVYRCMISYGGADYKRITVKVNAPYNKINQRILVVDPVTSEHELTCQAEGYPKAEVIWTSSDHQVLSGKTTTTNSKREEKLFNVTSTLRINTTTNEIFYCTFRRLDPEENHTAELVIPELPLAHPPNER
- TEST_DETAILS: SPR (Biacore), antibody captured on anti-human Fc, antigen in flow
- Method: A CM5 sensor chip was activated in each flow cell by 7-min injection (10 μl/min) of freshly prepared 1:1 50 mM N-hydroxysuccinimide (NHS): 200 mM 1-ethyl-3-(3-dimethylaminopropyl)-carbodiimide (EDC). […] The signals with captured antibody subtracted from those without captured antibody were calculated with Biacore X100 evaluation software ver. […]
OBSERVABLE: kon (M⁻¹ s⁻¹)
Give your result in M⁻¹ s⁻¹ as a bare value.

# BINDER, DATA_VALUE
measured = [
    ("4B6-H4L3 (antibody, V domains shown, Humanized; also called humanized 4B6 H4L3) VH: QVQLVQSGAEVKKPGASVKVSCKASGYVFTDYYMNWVRQAPGQGLEWIGDINPNNGGTSYNQKFQGRVTVTVDTSIRTAYMELSRLRSDDTAVYYCVKWGDGPFAYWGQGTLVTVSS VL: DIQMTQSQSSLSASVGDRVTITCQASQNVGAAVAWYQQKPGKAPKLLIYSASNRYTGVPSRFSGSGSGTDFTLTISSMQPEDIATYFCQQYSNYPTFGSGTKLGIK", 132000),
]

Let's switch to this binder now.
Request the reported kon associated with 23F11-H4L4 (antibody, V domains shown, Human IgG1 constant region with N297A; biotinylated in the alanine-scan ELISA; also called 23F11-H4L4-bio; humanized 23F11) VH: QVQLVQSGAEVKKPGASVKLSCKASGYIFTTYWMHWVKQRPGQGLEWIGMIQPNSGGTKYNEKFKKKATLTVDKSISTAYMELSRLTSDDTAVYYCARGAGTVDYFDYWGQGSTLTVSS VL: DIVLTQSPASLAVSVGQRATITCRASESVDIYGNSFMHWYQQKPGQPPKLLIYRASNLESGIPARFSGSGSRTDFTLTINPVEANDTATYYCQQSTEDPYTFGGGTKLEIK
465000
